Test system: Immunoglobulin E (IgE) (Homo sapiens), P01854-1
Sequence (P01854 other isoform, or with tags, fused parts or gaps): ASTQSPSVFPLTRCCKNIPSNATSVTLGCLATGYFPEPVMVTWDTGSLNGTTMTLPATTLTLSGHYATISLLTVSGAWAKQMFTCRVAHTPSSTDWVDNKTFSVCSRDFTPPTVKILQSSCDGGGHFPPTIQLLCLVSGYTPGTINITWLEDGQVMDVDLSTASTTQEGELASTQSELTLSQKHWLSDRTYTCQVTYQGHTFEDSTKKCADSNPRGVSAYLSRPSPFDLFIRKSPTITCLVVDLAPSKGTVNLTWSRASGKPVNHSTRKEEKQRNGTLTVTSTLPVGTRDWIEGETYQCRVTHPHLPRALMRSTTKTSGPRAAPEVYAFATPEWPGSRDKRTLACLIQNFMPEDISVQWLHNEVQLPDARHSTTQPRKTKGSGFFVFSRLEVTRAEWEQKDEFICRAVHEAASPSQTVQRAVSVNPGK
Assay Explanation: filter
Test Conditions: 2'-OMe/2'-deoxy mix, PS linkages as in Table 17; 3' idT [phosphorothioate linkages (internal N, left out) between 5-6, 7-8, 8-9, 15-16, 17-18, 18-19, 19-20, 20-21; 2'-OMe/2'-deoxy mix (positions not given); 3' inverted dT at 24]; DPBS Mg/Ca, 0.1 mg/mL BSA, RT
Quantity: Kd (nM)
One number for each entry, in nM.

Report Kd for AGCCUGGGGACCCAUGGGGGGCU [ARC1572] tested on Immunoglobulin E (IgE) (Homo sapiens), P01854-1.
0.3

----------
Test system: Immunoglobulin E (IgE) (Homo sapiens), P01854-1
Assay Explanation: filter
Test Conditions: 2'-OMe C,U,A1,G2,G7,A10,A14,G17; deoxy G6,G8,G9,G16,G18-G21; 3' idT [2'-OMe: 1-5,7,10-15,17,22,23; deoxy: 6,8,9,16,18-21; 24 = 3' inverted dT]; dPBS Ca/Mg + BSA, RT
Quantity: Kd (pM)
Numbers only, in pM.

// Kd lookup, key: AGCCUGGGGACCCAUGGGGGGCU [ARC1335]
300

----------
Tested on: Immunoglobulin E (IgE) (Homo sapiens), P01854-1
Assay Explanation: filter
Test Conditions: 2'-OMe at 7; 3' idT [7 (2'-OMe A); 38 (3' inverted dT)]; DPBS Mg/Ca, BSA
Quantity: Kd (nM)
Numbers only, in nM.

Kd of GGGGCTACTTTATCCGTTCCTCCTAGTGGGTAGCCCCT [ARC1271] on Immunoglobulin E (IgE) (Homo sapiens), P01854-1?
0.2

----------
Tested on: Immunoglobulin E (IgE) (Homo sapiens), P01854-1
Assay Explanation: filter
Test Conditions: 2'-OMe at 36; 3' idT [2'-OMe: 36; 38 = 3' inverted dT]; DPBS Mg/Ca, BSA
Quantity: pKd
One number for each entry, as −log10 of the molar value.

Hello, I am looking for reported pKd with Immunoglobulin E (IgE) (Homo sapiens), P01854-1 for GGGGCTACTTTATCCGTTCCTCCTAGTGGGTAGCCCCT [ARC1300] . Could you help?
9.15

----------
Test system: Immunoglobulin E (IgE) (Homo sapiens), P01854-1
Assay Explanation: filter
Test Conditions: ARC2342 chemistry with 2'-OMe I16; 3' idT; DPBS Mg/Ca, BSA, RT
Quantity: Kd (nM)
Give bare numbers, in nM.

GET /values?readout=Kd&item= AGCCUGGGNGACCCAUNNNGNNGNNGNCNUNN [ARC3271]
0.23

----------
Test system: Immunoglobulin E (IgE) (Homo sapiens), P01854-1
Assay Explanation: inhibition
Test Conditions: 2'-OMe/2'-deoxy mix, PS linkages as in Table 17; 3' idT [phosphorothioate linkages (internal N, left out) between 8-9, 15-16, 18-19, 20-21; 2'-OMe/2'-deoxy mix (positions not given); 3' inverted dT at 24]; FACS, 2.5 nM IgE
Quantity: IC50 (nM)
Answers are plain numbers, in nM.

For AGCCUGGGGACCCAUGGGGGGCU [ARC1383] , what is its reported IC50?
7.5

----------
System: Immunoglobulin E (IgE) (Homo sapiens), P01854-1
Assay Explanation: filter
Test Conditions: 2'-OMe C,U and A1; other A,G deoxy; 3' idT [2'-OMe: 1,3,4,5,11,12,13,15,22,23; 2'-deoxy: 2,6,7,8,9,10,14,16,17,18,19,20,21; 24 = 3' inverted dT]; dPBS Ca/Mg + BSA, RT
Quantity: pKd
Give bare numbers, as −log10 of the molar value.

Sample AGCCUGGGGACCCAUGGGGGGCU [ARC1250] — what was its pKd?
7.96

----------
Tested on: Immunoglobulin E (IgE) (Homo sapiens), P01854-1
Assay Explanation: filter
Test Conditions: 2'-OMe at 1-4,7,33-37; PS 23-24; 3' idT [2'-OMe at 1-4,7,33-37; PS 23-24; 3' idT cap after 37 (left out)]; DPBS Mg/Ca, BSA
Quantity: Kd (nM)
One number for each entry, in nM.

For GGGGCTACTTTATCCGTTCCTCCTAGTGGGTAGCCCC [ARC1406] , what is its reported Kd?
3.2

----------
System: Immunoglobulin E (IgE) (Homo sapiens), P01854-1
Assay Explanation: filter
Test Conditions: mAmGmUmAmGmCmCmUdGmGdG-s-dGmAmCmCmCmAmU-s-dI-s-mGdI-s-dGdI-s-dGmCmUmAmCmU [dI (written G) at 19,21,23; 2'-OMe 1-8,10,13-18,20,25-29; deoxy 9,11,12,19,21-24; PS 11/12,18/19,19/20,21/22,23/24; 3' inverted dT left out]; dPBS Ca/Mg + BSA, RT
Quantity: Kd (nM)
Give bare numbers, in nM.

Which Kd reading was recorded for the sequence AGUAGCCUGGGGACCCAUGGGGGGCUACU [ARC3276] ?
0.03

----------
System: Immunoglobulin E (IgE) (Homo sapiens), P01854-1
Assay Explanation: filter
Test Conditions: ARC1666 chemistry + PS 21-22,22-23,23-idT; 3' idT; second independent measurement 0.04 nM
Quantity: pKd
Answers are plain numbers, as −log10 of the molar value.

Which pKd value is on record for AGCCUGGGNGACCCAUNNNGNNGNNGNCNUNN [ARC2342] ?
9.72

----------
Test system: Immunoglobulin E (IgE) (Homo sapiens), P01854-1
Assay Explanation: filter
Test Conditions: ARC1666 pattern without 3' idT [dI (written G) at 16,18,20; 2'-OMe 1-5,7,10-15,17,22,23; deoxy 6,8,9,16,18-21; PS 8/9,15/16,16/17,18/19,20/21; no 3' idT]; dPBS + BSA, RT
Quantity: Kd (nM)
One number for each entry, in nM.

Record request: Kd value, item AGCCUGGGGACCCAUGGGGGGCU [ARC2343]
0.09

----------
Tested on: Immunoglobulin E (IgE) (Homo sapiens), P01854-1
Assay Explanation: filter
Test Conditions: 2'-OMe at 1-4,7,33-37; 3' idT [2'-OMe: 1-4,7,33-37; 38 = 3' inverted dT]; DPBS Mg/Ca, BSA
Quantity: pKd
Answers are plain numbers, as −log10 of the molar value.

Fill blank: measured pKd of the sequence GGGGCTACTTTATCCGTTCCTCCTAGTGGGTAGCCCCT [ARC1387] is ____.
8.62

----------
System: Immunoglobulin E (IgE) (Homo sapiens), P01854-1
Assay Explanation: filter
Test Conditions: DNA with 2'-OMe U9; 3' idT [2'-OMe U9; 3' inverted dT38]; dPBS Ca/Mg + BSA
Quantity: pKd
One number for each entry, as −log10 of the molar value.

Returns the measured pKd for the input sequence. Input: GGGGCTACUTTATCCGTTCCTCCTAGTGGGTAGCCCC [ARC1273]
8.52

----------
Tested on: Immunoglobulin E (IgE) (Homo sapiens), P01854-1
Assay Explanation: inhibition
Test Conditions: ARC1666 chemistry; 5' 40 kDa branched PEG; 3' idT; FACS, IgE-FceR1 on SX38 cells
Quantity: pIC50
One number for each entry, as −log10 of the molar value.

// pIC50 lookup, key: NNAGCCUGGGNGACCCAUNNNGNNGNNGCUN [ARC1787]
8.92

----------
Test system: Immunoglobulin E (IgE) (Homo sapiens), P01854-1
Assay Explanation: filter
Test Conditions: as printed mAmGmCmCmU-s-dG-s-mG-s-dG-s-dGmAmCmCmCmAmU-s-dG-s-mG-s-dG-s-dG-s-dG-s-dG-s-mCmU-3T [2'-OMe: 1-5,7,10-15,17,22,23; deoxy: 6,8,9,16,18-21; phosphorothioate after 5-8,15-21; 24 = 3' inverted dT]; dPBS Ca/Mg + BSA, RT
Quantity: pKd
Answers are plain numbers, as −log10 of the molar value.

Find pKd (Immunoglobulin E (IgE) (Homo sapiens), P01854-1) for the entry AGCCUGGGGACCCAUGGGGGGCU [ARC1573]
9.40

----------
Test system: Immunoglobulin E (IgE) (Homo sapiens), P01854-1
Assay Explanation: filter
Test Conditions: 2'-OMe U at 11; 3' idT [11 (2'-OMe U); 38 (3' inverted dT)]; DPBS Mg/Ca, BSA
Quantity: pKd
One number for each entry, as −log10 of the molar value.

Record request: pKd value, item GGGGCTACTTUATCCGTTCCTCCTAGTGGGTAGCCCC [ARC1275]
9.52

----------
Tested on: Immunoglobulin E (IgE) (Homo sapiens), P01854-1
Assay Explanation: filter
Test Conditions: 2'-F C and U; KD2 28.2 nM; 1xSHMCK + 0.1 mg/mL tRNA
Quantity: Kd (nM)
One number for each entry, in nM.

# input sequence: GGGAAAAGCGAAUCAUACACAAGACGUCGCCAGAUUGAGUGUCGUGGUU [rRfY minimer SEQ 90] ; wanted: its Kd
0.33
